- System: corn (Zea mays)
- Assay remarks: Test B pre-/postemergence plant response
- Type: in vivo
- Experimental context: Preemergence, 16 g ai/ha; scale 0 to 100 (0 no effect, 100 complete control)
Kindly supply the reported Plant response rating, Corn values for the records listed here.
Please reply with the number alone, leaving off any unit.

Plant response rating, Corn value, target or system corn (Zea mays), for CCc1cc(-c2ccc(Cl)cc2)nn1-c1c(OC(=O)OC(C)C)cnn(C)c1=O : 65

Plant response rating, Corn value, target or system corn (Zea mays), for CCc1cc(-c2ccc(Cl)c(Cl)c2)nn1-c1c(O)cnn(C)c1=O : 5

Plant response rating, Corn value, target or system corn (Zea mays), for CCc1cc(-c2ccc(Cl)cc2)nn1-c1c(OS(C)(=O)=O)cnn(C)c1=O : 80

Plant response rating, Corn value, target or system corn (Zea mays), for CCc1cc(-c2ccc(F)cc2)nn1-c1c(O)cnn(C)c1=O : 5

Plant response rating, Corn value, target or system corn (Zea mays), for Cc1cc(-c2ccc(Cl)cc2)nn1-c1c(OC(=O)c2ccccc2)cnn(C)c1=O : 55

Plant response rating, Corn value, target or system corn (Zea mays), for Cc1cc(-c2ccc(Cl)cc2)nn1-c1c(OC(=O)C(C)C)cnn(C)c1=O : 65

###

- System: bermudagrass (Cynodon dactylon)
- Assay remarks: Test B pre-/postemergence plant response
- Format: in vivo
- Experimental context: Preemergence, 16 g ai/ha; scale 0 to 100 (0 no effect, 100 complete control)
Kindly supply the reported Plant response rating, Bermudagrass values for the records listed here.
Please reply with the number alone, leaving off any unit.

The compound identified as Cc1cc(-c2ccc(Cl)cc2)nn1-c1c(OC(=O)OCC(C)C)cnn(C)c1=O [Compound 57] registered its Plant response rating, Bermudagrass at 100

The compound identified as CCc1cc(-c2ccc(C(F)(F)F)cc2)nn1-c1c(OS(C)(=O)=O)cnn(C)c1=O [Compound 19] registered its Plant response rating, Bermudagrass at 90

The compound identified as C#CCOC(=O)Oc1cnn(C)c(=O)c1-n1nc(-c2ccc(Cl)cc2)cc1C [Compound 58] registered its Plant response rating, Bermudagrass at 100

The compound identified as CCc1cc(-c2ccc(Cl)c(Cl)c2)nn1-c1c(O)cnn(C)c1=O [Compound 20] registered its Plant response rating, Bermudagrass at 0

The compound identified as CCc1cc(-c2ccc(Br)cc2)nn1-c1c(O)cnn(C)c1=O [Compound 61] registered its Plant response rating, Bermudagrass at 80

###

Kindly supply the reported Plant response rating, Foxtail, Green values for the records listed here.
- Tested on: green foxtail (Setaria viridis)
- Assay remarks: Test B pre-/postemergence plant response
- Type: in vivo
- Experimental context: Preemergence, 31 g ai/ha; 0 to 100 scale, 0 no effect, 100 complete control

Plant response rating, Foxtail, Green value, target or system green foxtail (Setaria viridis), for CCc1cc(-c2ccc(Cl)cc2)nn1-c1c(OC(=O)C(C)(C)C)cnn(C)c1=O : 100

Plant response rating, Foxtail, Green value, target or system green foxtail (Setaria viridis), for Cc1cc(-c2ccc(Br)cc2)nn1-c1c(OC(=O)OC(C)C)cnn(C)c1=O : 100

Plant response rating, Foxtail, Green value, target or system green foxtail (Setaria viridis), for Cc1cc(-c2ccc(C(F)(F)F)cc2)nn1-c1c(OC(=O)C(C)(C)C)cnn(C)c1=O : 90

Plant response rating, Foxtail, Green value, target or system green foxtail (Setaria viridis), for Cc1cc(-c2ccc(Cl)cc2)nn1-c1c(OC(=O)C(C)C)cnn(C)c1=O : 100

Plant response rating, Foxtail, Green value, target or system green foxtail (Setaria viridis), for CCc1cc(-c2ccc(Cl)c(Cl)c2)nn1-c1c(O)cnn(C)c1=O : 100

Plant response rating, Foxtail, Green value, target or system green foxtail (Setaria viridis), for Cc1cc(-c2ccc(Cl)cc2)nn1-c1c(OS(=O)(=O)c2ccccc2[N+](=O)[O-])cnn(C)c1=O : 98

###

- System: giant foxtail (Setaria faberi)
- Assay remarks: Test A pre-/postemergence plant response
- Format: in vivo
- Experimental context: Preemergence, 125 g ai/ha; 0 to 100 scale (0 no effect, 100 complete control)
Quantity name: Plant response rating, Foxtail, Giant
Please reply with the number alone, leaving off any unit.

The molecule identified as Cn1ncc(O)c(-c2nn(-c3ccc(Cl)cc3)cc2Br)c1=O [Compound 31] registered its Plant response rating, Foxtail, Giant at 100

The molecule identified as CCc1cc(-c2ccc(C(F)(F)F)cc2)nn1-c1c(OC(=O)c2ccc(Cl)nc2)cnn(C)c1=O [Compound 94] registered its Plant response rating, Foxtail, Giant at 100

The molecule identified as COCc1cc(-c2ccc(Br)cc2)nn1-c1c(O)cnn(C)c1=O [Compound 68] registered its Plant response rating, Foxtail, Giant at 100

The molecule identified as Cc1cc(-c2ccc(Cl)cc2)nn1-c1c(OC(=S)N(C)C)cnn(C)c1=O [Compound 69] registered its Plant response rating, Foxtail, Giant at 90

The molecule identified as Cc1nn(C)c(=O)c(-n2nc(-c3ccc(Br)cc3)cc2C)c1O [Compound 81] registered its Plant response rating, Foxtail, Giant at 100

The molecule identified as CCc1cc(-c2ccc(Cl)cc2)nn1-c1c(OC(=O)C(C)(C)C)cnn(C)c1=O [Compound 40] registered its Plant response rating, Foxtail, Giant at 100

The molecule identified as Cc1cn(-c2ccc(Cl)cn2)nc1-c1c(O)cnn(C)c1=O [Compound 84] registered its Plant response rating, Foxtail, Giant at 0

The molecule identified as CCc1cc(-c2ccc(C(F)(F)F)cc2)nn1-c1c(OC(=O)C2CCCCC2)cnn(C)c1=O [Compound 95] registered its Plant response rating, Foxtail, Giant at 100

The molecule identified as Cn1ncc(O)c(-c2nn(-c3ccc(C(F)(F)F)cc3)cc2Cl)c1=O [Compound 88] registered its Plant response rating, Foxtail, Giant at 90

The molecule identified as Cn1ncc(O)c(-c2nn(-c3ccc(C(F)(F)F)cn3)cc2Br)c1=O [Compound 71] registered its Plant response rating, Foxtail, Giant at 100

The molecule identified as Cc1nn(-c2ccc(Cl)cc2)cc1-c1c(O)cnn(C)c1=O [Compound 29] registered its Plant response rating, Foxtail, Giant at 60

The molecule identified as CCc1cc(-c2ccc(Br)cc2)nn1-c1c(O)cnn(C)c1=O [Compound 61] registered its Plant response rating, Foxtail, Giant at 100

The molecule identified as CCc1cc(-c2ccc(Br)cc2)nn1-c1c(O)c(OC)nn(C)c1=O [Compound 89] registered its Plant response rating, Foxtail, Giant at 100

The molecule identified as Cn1ncc(O)c(-c2nn(-c3ccc(Cl)cc3)cc2Cl)c1=O [Compound 28] registered its Plant response rating, Foxtail, Giant at 100

###

- Tested on: wheat (Triticum aestivum)
- Assay remarks: Test A pre-/postemergence plant response
- Format: in vivo
- Experimental context: Postemergence, 125 g ai/ha; 0 to 100 scale, 0 no effect, 100 complete control
Quantity name: Plant response rating, Wheat
Please reply with the number alone, leaving off any unit.

The compound identified as Cc1cc(-c2ccc(Cl)cc2)nn1-c1c(OC(=O)C(C)C)cnn(C)c1=O registered its Plant response rating, Wheat at 60

The compound identified as CCc1cc(-c2ccc(Cl)cc2)nn1-c1c(OS(C)(=O)=O)cnn(C)c1=O registered its Plant response rating, Wheat at 80

The compound identified as Cc1cn(-c2ccc(Cl)cn2)nc1-c1c(O)cnn(C)c1=O registered its Plant response rating, Wheat at 0

The compound identified as CCc1cc(-c2ccc(Br)cc2)nn1-c1c(O)cnn(C)c1=O registered its Plant response rating, Wheat at 90

The compound identified as Cc1nn(-c2ccc(Cl)cc2)cc1-c1c(O)cnn(C)c1=O registered its Plant response rating, Wheat at 0

The compound identified as Cc1nc(-c2ccc(C(F)(F)F)cc2)sc1-c1c(O)cnn(C)c1=O registered its Plant response rating, Wheat at 0

The compound identified as CCc1cc(-c2ccc(Cl)cc2)nn1-c1c(OC(=O)OC(C)C)cnn(C)c1=O registered its Plant response rating, Wheat at 70

The compound identified as Cc1cc(-c2ccc(Cl)cc2)nn1-c1c(OC(=O)c2ccccc2)cnn(C)c1=O registered its Plant response rating, Wheat at 60

The compound identified as Cn1ncc(O)c(-c2nn(-c3ccc(C(F)(F)F)cc3)cc2Cl)c1=O registered its Plant response rating, Wheat at 60

The compound identified as Cc1cc(-c2ccc(Cl)cc2)nn1-c1c(OC(=S)N(C)C)cnn(C)c1=O registered its Plant response rating, Wheat at 30

The compound identified as COc1nn(C)c(=O)c(-n2nc(-c3ccc(Br)cc3)cc2C)c1O registered its Plant response rating, Wheat at 80

The compound identified as CCc1cc(-c2ccc(F)cc2)nn1-c1c(O)cnn(C)c1=O registered its Plant response rating, Wheat at 20

The compound identified as CCc1cc(-c2ccc(C(F)(F)F)cc2)nn1-c1c(OC(=O)C2CCCCC2)cnn(C)c1=O registered its Plant response rating, Wheat at 80

The compound identified as CCc1cc(-c2ccc(Cl)s2)nn1-c1c(O)cnn(C)c1=O registered its Plant response rating, Wheat at 20
